pIC50: −log10 of the molar value.
Lab note: pIC50 readings collected with MmCLK1 (Mus musculus, UniProt P22518) for the following compounds.
Sequence (P22518 whole entry): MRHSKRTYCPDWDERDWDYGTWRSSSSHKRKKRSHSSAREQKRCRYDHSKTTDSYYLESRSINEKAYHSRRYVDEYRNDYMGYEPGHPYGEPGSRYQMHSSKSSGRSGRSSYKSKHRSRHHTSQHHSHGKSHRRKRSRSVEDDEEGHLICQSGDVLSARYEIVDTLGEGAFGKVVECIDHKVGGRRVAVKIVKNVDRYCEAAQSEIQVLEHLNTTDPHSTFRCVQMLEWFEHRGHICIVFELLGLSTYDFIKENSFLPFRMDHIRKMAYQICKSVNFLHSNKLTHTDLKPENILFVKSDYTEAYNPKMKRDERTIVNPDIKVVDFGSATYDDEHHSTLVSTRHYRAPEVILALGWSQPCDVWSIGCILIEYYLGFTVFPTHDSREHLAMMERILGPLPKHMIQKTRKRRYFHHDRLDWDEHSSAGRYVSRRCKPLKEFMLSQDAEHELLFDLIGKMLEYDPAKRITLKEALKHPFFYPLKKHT
Attribute measured: pIC50

COc1ccc2c(c1)[nH]c(=O)c1[nH]c3ccc(OC)cc3c12 [Compound 50] ... 7.06
COc1ccc2c(c1)[nH]c1c(=O)[nH]c3ccc(OC)cc3c12 [Compound 59] ... 7.03
COc1ccc2[nH]c3c(=O)[nH]c4ccccc4c3c2c1 [Compound 49] ... 7.89
COc1ccc2[nH]c3c(=O)[nH]c4cc(OC)c(OC)cc4c3c2c1 [Compound 52] ... 7.11
COc1ccc2[nH]c(=O)c3[nH]c4ccccc4c3c2c1 [Compound 46] ... 7.29

A. COc1ccc2[nH]c3c(=O)[nH]c4ccc(NC(C)=O)cc4c3c2c1 [Compound 57]
B. O=c1[nH]c2ccc(O)cc2c2c1[nH]c1ccccc12 [Compound 48]
Which one would you say has the larger pIC50 value: A , or B ? Identify your pick by its label.
B
(B: 7.77, A: 6.59)

* * *

# Tested system: HsGSK3β (Homo sapiens, UniProt P49841)
# Sequence (P49841 whole entry): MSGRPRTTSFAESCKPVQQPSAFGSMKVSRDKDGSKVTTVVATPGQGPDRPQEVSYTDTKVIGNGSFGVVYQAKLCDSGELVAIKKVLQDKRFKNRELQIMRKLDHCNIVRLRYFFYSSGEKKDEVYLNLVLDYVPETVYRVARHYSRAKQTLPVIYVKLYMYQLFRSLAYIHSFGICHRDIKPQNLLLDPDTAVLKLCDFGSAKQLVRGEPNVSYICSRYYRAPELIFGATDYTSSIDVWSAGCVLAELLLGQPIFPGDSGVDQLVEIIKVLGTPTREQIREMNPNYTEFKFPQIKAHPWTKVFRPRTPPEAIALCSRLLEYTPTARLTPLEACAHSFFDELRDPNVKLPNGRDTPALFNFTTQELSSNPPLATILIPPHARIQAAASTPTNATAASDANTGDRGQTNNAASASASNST
# Protocol notes: ADP-Glo kinase assay
# Type: biochemical, Homo sapiens (Hs)
# Experimental setup: mean n = 2, % of maximum activity of DMSO control, read-out: % Residual activity at 1 μM GSK3β
Attribute measured: remaining activity at 1 µM (%)

I. O=c1[nH]c2ccccc2c2c1[nH]c1ccccc12
II. COc1ccc2[nH]c3c(=O)[nH]c4ccc(NC(C)=O)cc4c3c2c1
Please indicate which entry, I or II , has the lower recorded remaining activity at 1 µM value. Choose, then provide that item's label.
II

a. COc1ccc2[nH]c3c(=O)[nH]c4ccccc4c3c2c1
b. COc1ccc2c(c1)c1c3cc(N(C)C)ccc3[nH]c(=O)c1n2C
Of a and b , which carries the smaller reported remaining activity at 1 µM figure? API: response body contains the label of the selected item.
a

* * *

Attribute measured: melting point

COc1ccc2[nH]c(=O)c3[nH]c4ccc(OC)cc4c3c2c1 ... 190 to 192 °C

Which melting point value is on record for COc1ccc2[nH]c3c(=O)[nH]c4ccc(C(F)(F)F)cc4c3c2c1 ?
241 to 244 °C

Also check COc1ccc2[nH]c3c(=O)[nH]c4cc(O)ccc4c3c2c1
227 to 230 °C

Item: COc1ccc2[nH]c3c(=O)[nH]c4ccc(O)cc4c3c2c1
202 to 205 °C

* * *

# Tested system: RnDYRK1A (Rattus norvegicus)
# Protocol notes: ADP-Glo kinase assay
# Type: biochemical, Rattus norvegicus (Rn)
# Experimental setup: IC50 DYRK1A/IC50 Haspin
# Protocol: Kinase activities were determined using the ADP-Glo methodology (ADP-Glo Kinase Assay; Promega) according to the assay described by Nguyen et al.[32] except for MmCLK1. The later was assayed in the following buffer: 10 mM MgCl2, 1 mM EGTA, 1 mM DTT, 25 mM Tris-HCl pH 7.5, 50 µg/ml heparin, 0.15 mg/ml BSA, with 0.027 µg/µl of the following peptide: GRSRSRSRSRSR as substrate.
Attribute measured: Selectivity index DYRK/Haspin

Below are worked cases with known answers.
COc1ccc2c(c1)[nH]c(=O)c1[nH]c3ccc(OC)cc3c12 ... 28
COc1ccc2[nH]c(=O)c3[nH]c4ccccc4c3c2c1 ... 10
COc1ccc2[nH]c3c(=O)[nH]c4ccc(NC(C)=O)cc4c3c2c1 ... 8

1. COc1ccc2c(c1)c1c3cc(O)ccc3[nH]c(=O)c1n2C
2. COc1ccc2[nH]c3c(=O)[nH]c4ccc(N)cc4c3c2c1
Which of the two items, 1 and 2 , has the greater recorded Selectivity index DYRK/Haspin? Field: selected label. Fill in the label of the entry you choose.
2
(2: 16, 1: 7)

* * *

# Tested system: MmCLK1 (Mus musculus, UniProt P22518)
# Protocol notes: ADP-Glo kinase assay
# Type: biochemical, Mus musculus (Mm)
# Experimental setup: 1 μM; mean n = 2; % of maximum activity of DMSO control; read-out: % Residual activity at 1 μM CLK1
Attribute measured: remaining activity at 1 µM (%)

The examples below pair each entry with its known result.
COc1ccc2c(c1)[nH]c(=O)c1[nH]c3ccc(OC)cc3c12 ... 10
O=c1[nH]c2ccc(O)cc2c2c1[nH]c1ccccc12 ... 4

I. COc1ccc2[nH]c3c(=O)[nH]c4ccc(N)cc4c3c2c1
II. COc1ccc2[nH]c3c(=O)[nH]c4cc(OC)c(OC)cc4c3c2c1
III. O=c1[nH]c2cc(O)ccc2c2c1[nH]c1ccccc12
IV. COc1ccc2[nH]c(=O)c3[nH]c4ccc(OC)cc4c3c2c1
Arrange the 4 compounds from largest to smallest remaining activity at 1 µM. Field: ranking. Enter the labels in the order requested.
III, IV, I, II
(III: 22%, IV: 5%, I: 3%, II: 1%)

1. COc1ccc2c(c1)c1c3cc(C(F)(F)F)ccc3[nH]c(=O)c1n2C
2. COc1ccc2[nH]c(=O)c3[nH]c4ccc(F)cc4c3c2c1
// compare: 1 vs 2 , metric remaining activity at 1 µM, want the smaller Write down the label of the entry you select.
1

* * *

# Tested system: HsCdk5/p25 (Homo sapiens, UniProt Q00535)
# Sequence (Q00535 whole entry): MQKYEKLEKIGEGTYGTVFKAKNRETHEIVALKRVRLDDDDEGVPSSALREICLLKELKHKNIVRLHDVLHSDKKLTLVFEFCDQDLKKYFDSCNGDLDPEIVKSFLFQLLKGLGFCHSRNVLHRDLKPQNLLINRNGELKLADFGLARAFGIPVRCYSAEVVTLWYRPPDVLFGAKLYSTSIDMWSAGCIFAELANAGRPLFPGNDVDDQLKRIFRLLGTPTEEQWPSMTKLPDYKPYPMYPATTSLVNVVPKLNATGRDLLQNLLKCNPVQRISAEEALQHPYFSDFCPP
# Sequence (Q15078 99-307 partner limits assumed): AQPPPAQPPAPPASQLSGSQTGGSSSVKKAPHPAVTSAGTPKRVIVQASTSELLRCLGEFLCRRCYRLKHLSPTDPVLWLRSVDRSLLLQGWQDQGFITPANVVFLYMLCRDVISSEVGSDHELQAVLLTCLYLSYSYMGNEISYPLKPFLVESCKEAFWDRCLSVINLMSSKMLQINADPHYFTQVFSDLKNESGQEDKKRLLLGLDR
# Protocol notes: ADP-Glo kinase assay
# Format: biochemical, Homo sapiens (Hs)
# Experimental setup: mean n = 2, % of maximum activity of DMSO control, read-out: % Residual activity at 1 μM CDK5
# Method: Kinase activities were determined using the ADP-Glo methodology (ADP-Glo Kinase Assay; Promega) according to the assay described by Nguyen et al.[32] except for MmCLK1. The later was assayed in the following buffer: 10 mM MgCl2, 1 mM EGTA, 1 mM DTT, 25 mM Tris-HCl pH 7.5, 50 µg/ml heparin, 0.15 mg/ml BSA, with 0.027 µg/µl of the following peptide: GRSRSRSRSRSR as substrate.
Attribute measured: remaining activity at 1 µM (%)

# count of solved cases: 8
COc1ccc2[nH]c3c(=O)[nH]c4ccc(C(F)(F)F)cc4c3c2c1 ... 56
COc1ccc2[nH]c3c(=O)[nH]c4cc(OC)c(OC)cc4c3c2c1 ... 63
COc1ccc2[nH]c3c(=O)[nH]c4ccc(N)cc4c3c2c1 ... 79
COc1ccc2[nH]c3c(=O)[nH]c4ccccc4c3c2c1 ... 77
COc1ccc2c(c1)c1c3cc(O)ccc3[nH]c(=O)c1n2C ... 22
COc1ccc2[nH]c(=O)c3[nH]c4ccc(OC)cc4c3c2c1 ... 70
O=c1[nH]c2ccc(O)cc2c2c1[nH]c1ccc(F)cc12 ... 91
O=c1[nH]c2cc(O)ccc2c2c1[nH]c1ccccc12 ... 59

I. COc1ccc2c(c1)c1c3cc(C(F)(F)F)ccc3[nH]c(=O)c1n2C
II. COc1ccc2[nH]c3c(=O)[nH]c4ccc(NC(C)=O)cc4c3c2c1
Lowest remaining activity at 1 µM? choose I or II Answer by quoting the chosen item's label.
I
(I: 68%, II: 100%)

A. O=c1[nH]c2ccc(O)cc2c2c1[nH]c1ccccc12
B. COc1ccc2[nH]c3c(=O)[nH]c4cc(O)ccc4c3c2c1
Of A and B , which one carries the higher reported remaining activity at 1 µM? In your reply, give the label of the chosen option.
A

* * *

# Tested system: HsHaspin (Homo sapiens)
# Sequence (Q8TF76 whole entry): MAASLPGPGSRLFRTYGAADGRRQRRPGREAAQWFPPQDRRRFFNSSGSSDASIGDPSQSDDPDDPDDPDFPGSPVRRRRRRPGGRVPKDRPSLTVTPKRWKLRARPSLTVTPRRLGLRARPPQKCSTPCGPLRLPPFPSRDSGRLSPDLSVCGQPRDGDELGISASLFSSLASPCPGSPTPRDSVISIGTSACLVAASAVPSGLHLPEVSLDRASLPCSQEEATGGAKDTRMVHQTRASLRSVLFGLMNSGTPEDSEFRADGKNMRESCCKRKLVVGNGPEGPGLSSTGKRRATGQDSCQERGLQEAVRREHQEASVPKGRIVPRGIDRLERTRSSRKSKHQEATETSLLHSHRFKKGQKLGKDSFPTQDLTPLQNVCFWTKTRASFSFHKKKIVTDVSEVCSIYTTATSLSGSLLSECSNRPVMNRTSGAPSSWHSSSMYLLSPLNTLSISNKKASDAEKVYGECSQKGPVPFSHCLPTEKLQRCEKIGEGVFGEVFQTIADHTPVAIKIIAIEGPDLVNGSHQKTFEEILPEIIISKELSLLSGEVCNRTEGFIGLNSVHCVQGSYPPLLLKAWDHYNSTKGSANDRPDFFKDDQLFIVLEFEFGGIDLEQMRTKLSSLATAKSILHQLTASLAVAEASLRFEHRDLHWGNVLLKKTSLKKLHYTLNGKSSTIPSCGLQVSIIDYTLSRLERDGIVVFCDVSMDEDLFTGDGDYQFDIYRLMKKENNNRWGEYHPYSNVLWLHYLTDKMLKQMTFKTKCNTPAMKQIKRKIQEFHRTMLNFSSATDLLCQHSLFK
# Protocol notes: ADP-Glo kinase assay
# Type: biochemical, Homo sapiens (Hs)
# Experimental setup: 1 μM; mean n = 2; % of maximum activity of DMSO control; read-out: % Residual activity at 1 μM Haspin
Attribute measured: remaining activity at 1 µM (%)

As a guide, the following entries are already answered.
COc1ccc2c(c1)[nH]c1c(=O)[nH]c3ccccc3c12 [Compound 58] ... 59
COc1ccc2[nH]c(=O)c3[nH]c4ccc(OC)cc4c3c2c1 [Compound 51] ... 1

a. COc1ccc2[nH]c3c(=O)[nH]c4ccc(NC(C)=O)cc4c3c2c1 [Compound 57]
b. O=c1[nH]c2ccccc2c2c1[nH]c1ccccc12 [Compound 45]
a or b : whose remaining activity at 1 µM is greater? Pick one and reply with its label.
b

* * *

# Tested system: HsCdk9/Cyc E (Homo sapiens, UniProt P50750)
# Sequence (P50750 whole entry): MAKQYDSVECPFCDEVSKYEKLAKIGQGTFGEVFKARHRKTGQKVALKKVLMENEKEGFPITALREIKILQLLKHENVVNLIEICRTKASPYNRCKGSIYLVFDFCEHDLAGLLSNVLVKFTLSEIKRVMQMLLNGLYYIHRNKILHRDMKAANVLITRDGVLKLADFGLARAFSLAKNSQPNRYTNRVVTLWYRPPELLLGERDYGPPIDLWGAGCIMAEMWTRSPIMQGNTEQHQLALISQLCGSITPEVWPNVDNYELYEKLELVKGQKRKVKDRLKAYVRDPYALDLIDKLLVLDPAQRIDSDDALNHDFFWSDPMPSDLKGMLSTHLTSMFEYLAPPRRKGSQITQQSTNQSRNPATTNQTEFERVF
# Sequence (O60563 whole entry partner): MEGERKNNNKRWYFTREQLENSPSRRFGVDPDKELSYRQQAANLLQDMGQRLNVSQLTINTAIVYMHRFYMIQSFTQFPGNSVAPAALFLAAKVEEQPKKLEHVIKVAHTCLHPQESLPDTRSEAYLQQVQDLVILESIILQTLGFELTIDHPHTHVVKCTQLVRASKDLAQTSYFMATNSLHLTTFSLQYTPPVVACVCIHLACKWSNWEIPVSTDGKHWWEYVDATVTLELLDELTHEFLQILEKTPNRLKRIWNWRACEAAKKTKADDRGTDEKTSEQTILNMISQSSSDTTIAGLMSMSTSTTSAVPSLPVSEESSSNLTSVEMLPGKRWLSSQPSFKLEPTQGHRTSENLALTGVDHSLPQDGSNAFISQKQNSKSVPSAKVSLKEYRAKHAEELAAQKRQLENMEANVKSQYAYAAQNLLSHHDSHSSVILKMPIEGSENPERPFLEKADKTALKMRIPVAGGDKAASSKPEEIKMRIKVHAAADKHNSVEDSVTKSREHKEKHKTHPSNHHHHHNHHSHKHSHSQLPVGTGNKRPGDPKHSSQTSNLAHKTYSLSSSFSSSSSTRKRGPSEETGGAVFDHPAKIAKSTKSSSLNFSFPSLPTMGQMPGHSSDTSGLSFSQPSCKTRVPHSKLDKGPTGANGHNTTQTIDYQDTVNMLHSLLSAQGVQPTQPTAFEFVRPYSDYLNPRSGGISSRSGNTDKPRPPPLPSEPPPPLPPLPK
# Protocol notes: ADP-Glo kinase assay
# Format: biochemical, Homo sapiens (Hs)
# Experimental setup: mean n = 2, % of maximum activity of DMSO control, read-out: % Residual activity at 1 μM CDK9
Attribute measured: remaining activity at 1 µM (%)

O=c1[nH]c2cc(O)ccc2c2c1[nH]c1ccccc12 [Compound 47] ... 20
COc1ccc2[nH]c3c(=O)[nH]c4ccc(C(F)(F)F)cc4c3c2c1 [Compound 53] ... 56

I. COc1ccc2[nH]c(=O)c3[nH]c4ccc(OC)cc4c3c2c1 [Compound 51]
II. COc1ccc2[nH]c3c(=O)[nH]c4ccc(NC(C)=O)cc4c3c2c1 [Compound 57]
Consider entries I and II . Which has the numerically lower remaining activity at 1 µM? Use the label to indicate which entry you chose.
I
(I: 33%, II: 72%)

P. COc1ccc2c(c1)[nH]c1c(=O)[nH]c3ccc(OC)cc3c12 [Compound 59]
Q. COc1ccc2[nH]c(=O)c3[nH]c4ccc(F)cc4c3c2c1 [Compound 60]
// max by remaining activity at 1 µM over [ P , Q ] Mark your answer with the label of the selected entry.
Q
(Q: 100%, P: 41%)
